meta.source: ChEMBL document CHEMBL2034935

Assay: Intrinsic clearance in rat liver microsomes assessed per mg protein at 1 uM up to 45 mins by LC/MS analysis
Type: ADME, Microsome
Conditions: read-out: CLH
property: microsomal CLint at 1 µM (µL/min/mg)
Only the number, expressed in µL/min/mg, is required.

// returns reported microsomal CLint at 1 µM for input CCCCC(=O)N(Cc1ccc(OC)cc1)c1cccc(-c2nnn[nH]2)c1
43

// returns reported microsomal CLint at 1 µM for input CCC(=O)N(Cc1ccc(OC(F)(F)F)cc1)c1cc(F)cc(-c2nnn[nH]2)c1
12

// returns reported microsomal CLint at 1 µM for input CCC(=O)N(Cc1cccc(OC(C)C)c1)c1cc(F)cc(-c2nnn[nH]2)c1
30

// returns reported microsomal CLint at 1 µM for input CS(=O)(=O)c1ccc(CN(C(=O)C2CCCC2)c2cc(F)cc(-c3nnn[nH]3)c2)cc1
40

// returns reported microsomal CLint at 1 µM for input CCC(=O)N(Cc1cccc(O)c1)c1cc(F)cc(-c2nnn[nH]2)c1
10

// returns reported microsomal CLint at 1 µM for input CCCCC(=O)N(Cc1ccc2c(c1)OCCO2)c1cccc(-c2nnn[nH]2)c1
125

// returns reported microsomal CLint at 1 µM for input CS(=O)(=O)c1ccc(CN(C(=O)Cc2ccccc2)c2cc(F)cc(-c3nnn[nH]3)c2)cc1
20

// returns reported microsomal CLint at 1 µM for input CC(C)CC(=O)N(Cc1ccc(S(C)(=O)=O)cc1)c1cc(F)cc(-c2nnn[nH]2)c1
17
